All values here come from paper PMC4721142.

- assay explanation: Comparison of in vitro screens: overlapping effective and nontoxic range;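 also: compares non-toxic ranges in synovial cells and chondrocytes with effective ranges against NFkB, MMP-13 and osteoclasts, giving their overlap as the predicted efficacy range in uM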
- assay setup: inhibits with minimal or no toxicity to synovium or cartilage; overlapping range if effective in more than one assay
Measured Overlapping effective and nontoxic range, listed per entry for reference.

Entry O=C(Nc1cc(C(F)(F)F)cc(C(F)(F)F)c1)c1cc(Cl)ccc1O [IKK inhibitor V] , Overlapping effective and nontoxic range reported as 1.625 to 26 µM

Entry Nc1cc(-c2ccncc2)c[nH]c1=O [Amrinone] , Overlapping effective and nontoxic range reported as 80 µM

Entry Cc1ccc(S(=O)(=O)/C=C/C#N)cc1 [BAY-117082, BAY-11-7082] , Overlapping effective and nontoxic range reported as 6 to 192 µM
